Biological target: BRD4 (BDI_K57-E168) (Homo sapiens)
Construct: BD1: amino acids K57-E168; made in house
Assay: TR-FRET bromodomain binding assay, first bromodomain of BRD4
Conditions: TR-FRET assay protocol G (compound 0.92 μM-15 pM); 100 nM probe
pKi: −log10 of the molar value.
Criterion: pKi meeting or surpassing 8. Met: 1 (yes). Not met: 0 (no).

compound="CCOC(=O)C1Nc2ncc(F)cc2-c2cn(C)c(=O)c3[nH]cc1c23 (centres unmarked)" system_name="BRD4 (BDI_K57-E168) (Homo sapiens)" category="0 (no)"

Asked: Is pKi for `COc1ccc(OC(=O)N2Cc3c[nH]c4c(=O)n(C)cc(c34)-c3cc(CS(C)(=O)=O)ccc32)cc1` at or above 8?
Given back: 1 (yes)

Asked: Is pKi for Cn1cc2c3c(c[nH]c3c1=O)C(c1cc(C(C)(C)C)cc(C(C)(C)C)c1)N(c1ccc(F)cc1F)c1ccc(CS(C)(=O)=O)cc1-2 (centres unmarked) at or above 8?
Given back: 0 (no)

Asked: Is pKi for Cn1cc2c3c(c[nH]c3c1=O)C(c1cccc(C#N)c1)N(c1ccc(F)cc1F)c1ccc(CS(C)(=O)=O)cc1-2 (centres unmarked) at or above 8?
Given back: 0 (no)

Asked: Is pKi for Cn1cc2c3c(c[nH]c3c1=O)C(Cn1ccccc1=O)N(c1ccc(F)cc1F)c1ccc(CS(C)(=O)=O)cc1-2 (single isomer, unassigned) [Example 251] at or above 8?
Given back: 0 (no)

Asked: Is pKi for Cn1cc2c3c(c[nH]c3c1=O)C(Cn1ccccc1=O)N(c1ccc(F)cc1F)c1ccc(CS(C)(=O)=O)cc1-2 (centres unmarked) [Example 238] at or above 8?
Given back: 0 (no)

Asked: Is pKi for `Cn1cc2c3c(c[nH]c3c1=O)CN(c1ccc(Cl)cc1)c1ccc(CS(C)(=O)=O)cc1-2` at or above 8?
Given back: 1 (yes)

Asked: Is pKi for Cn1cc2c3c(c[nH]c3c1=O)C(c1ccccc1)N(c1ccc(F)cc1F)c1ccc(CS(C)(=O)=O)cc1-2 (centres unmarked) [Example 214] at or above 8?
Given back: 0 (no)

----------
System: breast cancer cell line MX-1
Experiment: MX-1 cell line proliferation assay
Assay type: cell-based
Conditions: MX-1 cells, 3-day proliferation assay, Cell Titer Glo; read-out: Cellular proliferation: EC50
I'd appreciate it if you could supply log10 EC50 values for the items below.
Would you kindly interpret these values as log10 of EC50 expressed in µM?

Answered cases to consult:
compound="COCCC1c2c[nH]c3c(=O)n(C)cc(c23)-c2cc(CS(C)(=O)=O)ccc2N1CC1CC1 (racemic)" experimental_value=-2.06
compound=CC#CCOC(=O)N1Cc2c[nH]c3c(=O)n(C)cc(c23)-c2cc(CS(C)(=O)=O)ccc21 experimental_value=-2.36
compound=Cn1cc2c3c(c[nH]c3c1=O)CN(C(=O)CC(C)(C)C)c1ccc(CS(C)(=O)=O)cc1-2 experimental_value=-2.15
compound=Cn1cc2c3c(c[nH]c3c1=O)CN(CCC1CCOCC1)c1ccc(CS(C)(=O)=O)cc1-2 experimental_value=-1.97
compound=Cn1cc2c3c(c[nH]c3c1=O)CN(C(=O)Nc1c(F)cccc1F)c1ccc(CS(C)(=O)=O)cc1-2 experimental_value=-0.88

Give log10 EC50 for all compounds that follow.
1. Cn1cc2c3c(c[nH]c3c1=O)CN(C1CCC(N)CC1)c1ccc(CS(C)(=O)=O)cc1-2 (mixture of isomers)
2. Cn1cc2c3c(c[nH]c3c1=O)C(CCNC(=O)OCc1ccccc1)N(c1ccc(F)cc1F)c1ccc(CS(C)(=O)=O)cc1-2 (racemic)
3. Cn1cc2c3c(c[nH]c3c1=O)C(CO)N(c1ccc(F)cc1F)c1ccc(CS(C)(=O)=O)cc1-2 (stereo not drawn)
4. Cn1cc2c3c(c[nH]c3c1=O)CN(C1CCC(F)(F)CC1)c1ccc(CS(C)(=O)=O)cc1-2

Given back:
[-0.81, -1.39, -1.47, -2.86]
